# EXPERIMENTAL_PROTOCOL: growth suppression of yeast trafficking mutant, preliminary HTS, modulators of trafficking downstream of Golgi apparatus project, 1536-format plate, OD 615 nm (AID 637)
# CONDITION_PARAMETERS: yeast transport mutant growth, absorbance 615 nm, 18 h; stronger effect = higher value
OBSERVED_PROPERTY: inhibition (%)

# MOLECULE, OBSERVED_MEASUREMENT
rows = [
    ("CCOc1cccc(C(=O)N(Cc2ccc(F)cc2)C2CCS(=O)(=O)C2)c1 (stereo not given)", -2.33),
    ("OCc1nc(CO)n(Cc2ccccc2)n1", -0.48),
    ("CCc1ccccc1OCCCCCNCCO", -1.5),
    ("COc1ccc(Cn2c(-c3ccco3)nc3oc4ccccc4c(=O)c3c2=O)cc1", 6.45),
    ("Cn1c(SCc2ccc3c(c2)OCO3)nnc1-c1ccccc1", -1.11),
    ("C=CCn1c(SCC(=O)c2ccc(OC)cc2)nnc1C(C)NC(=O)c1cccs1 (stereo not given)", 7.67),
    ("Cc1noc(NS(=O)(=O)c2ccc(N3C(=O)c4ccccc4C3=O)cc2)c1C", 2.58),
    ("Cc1cccc2cc(CN(CCN3CCCC3)C(=O)NC3CCCCC3)c(=O)[nH]c12", -0.16),
    ("C(=C\\c1ccccc1)/CN1CCN(Cc2ccc3c(c2)OCCO3)CC1", 1.15),
    ("CCc1ccccc1NC(=O)CSc1nc2n[nH]c(C)c2c(=N)n1-c1ccc(OC)cc1", 6.51),
    ("COc1ccc(C2=Nn3c(nnc3-c3ccccc3)SC2)cc1OC", 5.65),
    ("CCOC(=O)c1[nH]c(C)c(C(=O)N2CCN(C(=O)c3ccco3)CC2)c1C", -0.48),
    ("CC(=O)c1cccc(-n2nnnc2SCC(=O)N2CCCC2)c1", -7.5),
    ("CCOC(=O)c1ccc(NC(=O)CCNc2c(N3CCCC3)c(=O)c2=O)cc1", 0.18),
    ("CC(C)(C)Nc1nc(NC(C)(C)C)nc(-n2ccnc2)n1", 10.8),
    ("CS(=O)(=O)N1CCN(c2ccccc2NC(=O)c2ccc(-c3ccc(Cl)cc3Cl)o2)CC1", -3.49),
    ("COCCCn1c(SCC(=O)Nc2cccc(C)n2)nnc1-c1ccco1", -2.95),
    ("CCOC(=O)N1CCN(C(=O)c2ccc3nc4cc(Cl)ccc4c(=O)n3c2)CC1", 2.1),
    ("Cc1nnc(SCc2nc3ccccc3s2)n1-c1ccccc1", -0.48),
    ("c1ccc(OCCCn2nnc(-c3cccnc3)n2)cc1", -5.83),
    ("CCOc1ccc(C(=O)N2CCN(c3ccccc3)CC2)cc1OCC", 9.51),
    ("Cc1cc(NCCN(C)C)n2nc(-c3cccs3)cc2n1", -2.62),
    ("COC(=O)c1cc2ccsc2n1Cc1nc(-c2ccc(OC)cc2)oc1C", -4.67),
    ("Cc1ccc(-c2nnn(CC(=O)N(CC3CCCO3)C(C(=O)NC(C)(C)C)c3ccc(F)cc3)n2)o1 (stereo not given)", -4.03),
    ("O=C(CCN1CCN(C(=O)c2ccco2)CC1)Nc1ccc(F)cc1", 2.95),
    ("COC(=O)CCC(=O)Nc1cccc(Br)c1", -3.65),
    ("Cc1cccc(N2CN=c3s/c(=C\\c4ccncc4)c(=O)n3C2)c1", -2.42),
    ("COc1ccc(Cl)cc1N1CC(c2nc3ccccc3[nH]2)CC1=O (stereo not given)", 2.17),
    ("O=C(CCOc1ccccc1)NCc1ccccc1", 28.9),
    ("Cc1sc(NC(=O)CSc2nnc(COc3ccccc3)n2C)c(C#N)c1C", -7.3),
    ("O=C(c1c(F)cccc1F)N(Cc1ccccn1)C1CCCC1", 26.3),
    ("CCOC(=O)c1ccc(-n2c(=O)[nH]c3ccccc3c2=O)cc1", -2.74),
    ("O=C(NCCC1=CCCCC1)C1CCN(C(=O)Nc2ccccc2)CC1", -2.33),
    ("CCOC(=O)N1CCN(S(=O)(=O)c2cc(C)c(C)cc2C)CC1", 2.22),
    ("O=C(NCC1CCCO1)C1CCCN(Cc2cnn(-c3ccccc3)c2-n2cccc2)C1 (stereo not given)", -8.33),
    ("CCOC(=O)C1=C(c2ccccc2)N2CCN=C2S1", -9.68),
    ("O=C(c1ccco1)N1CCN(c2ccc(Cl)cc2)CC1", -5.4),
    ("Cc1nnc(SCC(=O)N2CC(=O)Nc3ccccc32)n1-c1ccccc1", 4.84),
    ("COCCCNC(=O)c1ccccc1NS(=O)(=O)c1ccc(C)cc1", -5.24),
    ("CCOc1ccc(NC(=O)c2ccc3c(c2)N(Cc2ccc(F)cc2)C(=O)CS3=O)cc1 (stereo not given)", -0.17),
    ("O=C(Nc1ccc2c(c1)OCO2)C(c1ccc(Cl)cc1)N1CCN(C(=O)c2ccco2)CC1 (stereo not given)", 2.3),
    ("CCOc1cccc(/C(O)=C2/C(=O)C(=O)N(CCN3CCOCC3)C2c2cccnc2)c1 (stereo not given)", -3.17),
    ("CCn1c(C)cc(=S)c2ccccc21", -3.65),
    ("CCC(Sc1nc(-c2ccccc2)c(C#N)c(=O)[nH]1)C(=O)Nc1cc(C)on1 (stereo not given)", -8.67),
    ("O=c1cc(-c2ccccc2)[nH]c2nc3ccccc3n12", -2.73),
]

###

# EXPERIMENTAL_PROTOCOL: growth suppression of PTEN-deleted HCT116, pilot screen, cell-based, HCT116 clonal line, CellTiter-Glo (AID 824);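 further: 0% = 20 µM Hyamine control and 100% = vehicle cell control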
# CONDITION_PARAMETERS: 60 h, at 10 µM, stronger effect = lower value
Records with an inconclusive call do not appear.
Response field label takes Yes when viability is strictly below 90% and No in all other cases.

# TEST_SMILES, ASSIGNED_CLASS
records = [
    ("COc1ccc(OC)c(NC(=O)c2ccc(CN3CCOCC3)cc2)c1", "No"),
    ("CC(=O)N1CCC(C(=O)Nc2ccccc2)(N(Cc2ccccc2)C(=O)c2cccnc2)CC1", "Yes"),
    ("Cc1ccc(Cl)cc1N(CC(=O)N1CCCCCC1)S(C)(=O)=O", "No"),
    ("O=S(=O)(NCCc1csc(-c2cccnc2)n1)c1cccs1", "No"),
]

###

# EXPERIMENTAL_PROTOCOL: 384-well plate pilot, post-Golgi transport modulator project, inhibition of yeast transport mutant growth (AID 636)
# CONDITION_PARAMETERS: absorbance 615 nm, about 18 h, stronger effect = higher value
Activity calls are given as the source filed them. Rule as the data show it: active = inhibition above about 31%; inactive = the rest.

# COMPOUND, inhibition
records = [
    ("CCc1nc2sc3c(c2c(=O)o1)CCCC3", "-7.5% (inactive)"),
    ("CCn1c(C(=O)N2CCCC(C(=O)NCCCc3ccccc3)C2)cc2sccc21 (stereo unspecified)", "-2.08% (inactive)"),
    ("O=C(CC(C(=O)N1CCc2ccccc21)n1ccnc1)NCc1cccnc1 (stereo unspecified)", "1.17% (inactive)"),
    ("CCOC(=O)c1c(C)[nH]c(C(=O)CSc2nc3ccccc3o2)c1C", "-1.15% (inactive)"),
    ("O=C(CCc1nc2ccccc2[nH]1)Nc1ccc2c(c1)OCO2", "0.9% (inactive)"),
    ("COC(=O)c1ccc(CNC(=O)COc2ccccc2Br)o1", "-3.33% (inactive)"),
    ("COC(=O)C1=C(C)n2nnnc2NC1c1ccc(Cl)cc1 (stereo unspecified)", "-0.39% (inactive)"),
    ("O=C(O)C1CC(=O)N(Cc2ccccc2)C1 (stereo unspecified)", "-5.39% (inactive)"),
    ("CC1(C)CC(=O)C2=C(C1)OC(=O)C2(NC(=O)c1cccs1)C(F)(F)F (stereo unspecified)", "-4.05% (inactive)"),
    ("COc1ccc(CNc2nc(NCc3ccc(OC)cc3)n(S(C)(=O)=O)n2)cc1", "0% (inactive)"),
    ("O=C(Nc1ccc(N2CCN(Cc3ccccc3Cl)CC2)cc1)c1cccnc1", "2.16% (inactive)"),
]

###

# EXPERIMENTAL_PROTOCOL: reversal of MRP1-mediated doxorubicin resistance, pilot screen, H69AR cells, doxorubicin co-treatment (AID 601)
# CONDITION_PARAMETERS: H69AR cells, CellTiter-Glo, 72 h; compound alone cytotoxicity; at 10 µM
Measured viability accompanies every entry in the list below.

# MOLECULE, viability / %
rows = [
    ("COc1ccc(CCNC(=O)C2CC(=O)N(c3ccccc3)C2)cc1OC (stereo unspecified)", 91.5),
    ("Cc1ccc(CSC2=NCCN2C(=O)c2ccco2)cc1", 84.3),
    ("CCC(c1nnnn1C(C)(C)C)N1CCN(C2CCCC2)CC1 (stereo unspecified)", 107),
    ("C[C@]12CCC(=O)C=C1CC[C@@H]1[C@@H]2CC[C@@]2(C)[C@H]1CC[C@]2(O)C(=O)CO", 92.8),
    ("COC(=O)C(O)(CC(=O)c1ccc(OC)cc1)C(F)(F)F (stereo unspecified)", 95.9),
    ("COc1ccc2cc(C#N)c(SCC(=O)N3CCCC3)nc2c1", 70.2),
    ("O=C(O)CCNc1ccc2c(c1)OCCO2", 86.9),
    ("Cc1ccc(Cl)cc1NC(=O)CSc1nnc(C)n1-c1ccccc1", 86.6),
    ("CC1CCCCC1NC(=O)c1nn(C)c(=O)c2ccccc12 (stereo unspecified)", 89.2),
    ("O=C(COC(=O)c1cncc(Br)c1)NCCC1=CCCCC1", 97.5),
    ("O=C(CCN1C(=O)COc2ccccc21)NCCN1CCN(c2cccc(Cl)c2)CC1", 83.8),
]
